Origin of values: the supplement of paper PMC9112550

Kindly state shrunken log2 fold change for each of the entries shown.
- Test system: Escherichia coli TOP10;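 note: peptides expressed intracellularly from a pBAD plasmid library in pooled LB shake-flask culture, induced with 0.3% L-arabinose, DNA abundance read by NGS, three biological replicates, DESeq2 with apeglm shrinkage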
- Assay Method Text: shrunken log2 fold change of peptide-encoding DNA abundance (4.5 h post-induction vs induction); higher = less antimicrobial activity (less host growth inhibition)
- Condition Details: time post-induction: 4.5 h; library: site-saturation at positions 5, 18, 19, 20
One number for each entry.

Example cases with answers are listed next.
>>> val("RRIRWRPPRLPRPRPRPRWPPRP")
0.598
>>> val("RRIRARPPRLPRPRPRPHQNPRP")
0.409
>>> val("RRIRCRPPRLPRPRPRPDQCPRP")
-0.00126
>>> val("RRIRIRPPRLPRPRPRPGHHPRP")
-0.309
>>> val("RRIRQRPPRLPRPRPRPSETPRP")
-0.216
>>> val("RRIRVRPPRLPRPRPRPEGGPRP")
0.747

// batch mode: one shrunken log2 fold change value per listed entry
1. RRIRYRPPRLPRPRPRPTLDPRP
2. RRIRDRPPRLPRPRPRPHFKPRP
3. RRIRSRPPRLPRPRPRPNLCPRP
4. RRIRDRPPRLPRPRPRPRGWPRP
5. RRIRARPPRLPRPRPRPHWDPRP
6. RRIRFRPPRLPRPRPRPTCKPRP
7. RRIRRRPPRLPRPRPRPGQPPRP
8. RRIRDRPPRLPRPRPRPTFDPRP

-0.628
-0.148
-0.0929
1.35
0.116
-0.295
0.262
0.853
